target: Itk (Homo sapiens); construct: Kinases are expressed as either kinase domains or full length constructs; made in house; test: Kinase inhibition assay (33P transfer), Itk; type: biochemical; details: Table 3; read-out: Itk-1
Sequence (Q08881 whole entry, species assumed, the tested form may be a part): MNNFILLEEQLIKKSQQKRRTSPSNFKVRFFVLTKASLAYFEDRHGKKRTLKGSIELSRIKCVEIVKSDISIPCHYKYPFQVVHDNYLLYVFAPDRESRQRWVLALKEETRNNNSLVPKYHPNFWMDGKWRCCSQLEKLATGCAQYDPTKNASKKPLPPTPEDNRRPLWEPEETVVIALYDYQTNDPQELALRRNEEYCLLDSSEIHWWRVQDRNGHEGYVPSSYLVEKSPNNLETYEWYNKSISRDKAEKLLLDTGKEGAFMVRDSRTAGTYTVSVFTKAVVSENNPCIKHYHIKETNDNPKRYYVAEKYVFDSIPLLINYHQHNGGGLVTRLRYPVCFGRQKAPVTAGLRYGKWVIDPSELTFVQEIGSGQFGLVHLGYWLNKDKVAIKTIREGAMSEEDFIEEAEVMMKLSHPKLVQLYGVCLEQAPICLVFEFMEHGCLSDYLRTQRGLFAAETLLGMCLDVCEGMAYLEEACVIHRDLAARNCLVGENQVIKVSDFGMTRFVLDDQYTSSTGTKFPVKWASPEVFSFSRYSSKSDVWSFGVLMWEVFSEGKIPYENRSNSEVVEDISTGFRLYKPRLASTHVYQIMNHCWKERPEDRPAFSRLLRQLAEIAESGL
pIC50: −log10 of the molar value.
Exercise: state measured pIC50 for each of the compounds provided.

As a guide, the following entries are already answered.
compound="COc1cc(Nc2ncnc(-n3ccc4cc(O)ccc43)n2)cc(OC)c1OC [Compound 202]" endpoint_label=pIC50 observed_value="> 5.99"
compound="COc1cc(Nc2ncnc(-n3c(Nc4cc(C)n[nH]4)nc4ccccc43)n2)cc(OC)c1OC [Compound 401]" endpoint_label=pIC50 observed_value="> 6.07"
compound="COc1cc(Nc2ncnc(N3CCN(c4ncccn4)CC3)n2)cc(OC)c1OC [Compound 214]" endpoint_label=pIC50 observed_value="< 4.97"
compound="COc1cc(Nc2ncnc(-n3c(NCc4ccccc4)nc4ccccc43)n2)cc(OC)c1OC [Compound 371]" endpoint_label=pIC50 observed_value="< 5.03"
compound="COc1cc(Nc2ncnc(NC(=O)Nc3ccccc3)n2)cc(OC)c1OC [Compound 852]" endpoint_label=pIC50 observed_value="< 4.94"

Value sought for every listed compound: pIC50.
1. OCCCNc1cc(-c2ncnc(Nc3cccc(OC(F)(F)C(F)F)c3)n2)ccn1 [Compound 372]
2. COc1ccc(Nc2ncnc(Nc3ccc(OC)c(OC)c3)n2)cc1OC [Compound 63]
3. Brc1ccc(Nc2ncnc(-n3cccc3)n2)cc1 [Compound 272]
4. COc1cc(Nc2ncnc(Nc3cc(-c4ccccc4)n[nH]3)n2)cc(OC)c1OC [Compound 102]
5. CC[C@H]1CN(c2ccc(-c3ncnc(Nc4cc(OC)c(OC)c(OC)c4)n3)cn2)CCN1 [Compound 446]
6. COCCOc1ccc(Nc2ncnc(-n3c(N)nc4ccccc43)n2)cc1OC [Compound 287]
7. COc1cc(Nc2ncnc(Nc3ccc(C)cc3)n2)cc(OC)c1OC [Compound 930]

Reply text:
1: < 4.99; 2: < 4.93; 3: < 4.85; 4: 5.24 to 6.02; 5: < 5.00; 6: 5.07 to 5.23; 7: < 4.91

Please state, for each entry, its recorded pIC50.
1. COc1cc(Nc2ncnc(-n3c(Nc4ccc(F)cc4)nc4ccccc43)n2)cc(OC)c1OC [Compound 387]
2. CC(C)(C)OC(=O)NCc1ccc(Nc2ncnc(Nc3cc(-c4ccco4)n[nH]3)n2)cc1 [Compound 431]
3. COc1cc(Nc2ncnc(Nc3ncncn3)n2)cc(OC)c1OC [Compound 254]
4. COCCOc1ccc(Nc2ncnc(Nc3ccc(C)c(O)c3)n2)cc1OCCOC [Compound 125]
5. NC(=O)c1cccc(Nc2ncnc(-c3ccccc3)n2)c1 [Compound 151]
6. c1csc(-c2ncnc(Nc3ccc4c(c3)OCO4)n2)c1 [Compound 1072]

Reply text:
< 5.03
5.11 to 5.27
< 4.90
5.10 to 5.26
< 4.81
< 4.82

###

Hi there, I'd appreciate the recorded IC50 for every entry that follows.
molecular target: c-Met (Homo sapiens, UniProt P08581); construct: Kinases are expressed as either kinase domains or full length constructs; made in house; test: Kinase inhibition assay (33P transfer), c-Met; format: biochemical; settings: Table 2, kinase inhibition class; read-out: Met-1
Sequence (P08581 25-1390): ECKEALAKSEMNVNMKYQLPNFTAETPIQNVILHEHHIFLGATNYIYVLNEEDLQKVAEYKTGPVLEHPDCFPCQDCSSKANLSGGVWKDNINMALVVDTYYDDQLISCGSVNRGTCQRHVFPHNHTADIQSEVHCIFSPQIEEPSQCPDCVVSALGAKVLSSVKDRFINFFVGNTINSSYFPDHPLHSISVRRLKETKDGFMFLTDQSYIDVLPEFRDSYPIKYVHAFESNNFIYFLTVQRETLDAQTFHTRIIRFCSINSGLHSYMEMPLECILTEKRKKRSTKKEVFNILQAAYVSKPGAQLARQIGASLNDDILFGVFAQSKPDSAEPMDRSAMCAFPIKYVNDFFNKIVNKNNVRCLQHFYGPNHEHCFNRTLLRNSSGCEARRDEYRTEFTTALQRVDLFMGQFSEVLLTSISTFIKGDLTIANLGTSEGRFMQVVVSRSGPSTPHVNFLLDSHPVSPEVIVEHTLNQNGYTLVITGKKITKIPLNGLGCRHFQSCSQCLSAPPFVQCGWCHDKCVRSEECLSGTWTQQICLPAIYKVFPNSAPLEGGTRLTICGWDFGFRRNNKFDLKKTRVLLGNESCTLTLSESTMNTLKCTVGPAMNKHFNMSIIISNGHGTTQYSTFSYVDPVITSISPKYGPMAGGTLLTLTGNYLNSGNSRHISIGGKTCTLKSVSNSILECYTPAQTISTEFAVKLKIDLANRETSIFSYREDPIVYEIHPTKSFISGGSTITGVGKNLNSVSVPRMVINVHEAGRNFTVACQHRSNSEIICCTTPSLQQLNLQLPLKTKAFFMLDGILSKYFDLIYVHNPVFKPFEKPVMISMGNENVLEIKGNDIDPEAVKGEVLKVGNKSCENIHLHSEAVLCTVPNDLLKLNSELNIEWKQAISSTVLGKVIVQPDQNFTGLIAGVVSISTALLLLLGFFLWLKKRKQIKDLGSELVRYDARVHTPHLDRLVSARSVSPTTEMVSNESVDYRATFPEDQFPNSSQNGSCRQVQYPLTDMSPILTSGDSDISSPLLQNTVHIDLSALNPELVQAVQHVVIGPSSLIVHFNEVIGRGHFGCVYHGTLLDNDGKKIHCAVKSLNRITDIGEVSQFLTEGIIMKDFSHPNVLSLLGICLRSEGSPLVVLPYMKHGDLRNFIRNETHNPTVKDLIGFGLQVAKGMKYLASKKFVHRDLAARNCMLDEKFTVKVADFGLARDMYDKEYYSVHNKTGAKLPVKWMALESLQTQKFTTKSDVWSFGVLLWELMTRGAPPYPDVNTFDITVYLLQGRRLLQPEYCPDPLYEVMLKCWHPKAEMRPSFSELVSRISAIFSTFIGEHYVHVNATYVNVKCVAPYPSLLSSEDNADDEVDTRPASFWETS

Worked cases, IC50 given:
compound="c1coc(-c2cc(Nc3ncnc(Nc4ccc(N5CCOCC5)cc4)n3)[nH]n2)c1 [Compound 340]" target_or_system="c-Met (Homo sapiens, UniProt P08581)" endpoint_label=IC50 observed_value="< 0.989 µM"
compound="COc1cc(Nc2ncnc(-n3c(NCCCCO)nc4ccccc43)n2)cc(OC)c1OC [Compound 392]" target_or_system="c-Met (Homo sapiens, UniProt P08581)" endpoint_label=IC50 observed_value="> 9.67 µM"
compound="O=C(O)Cc1ccc(Nc2ncnc(Nc3cc(-c4ccccc4)n[nH]3)n2)cc1 [Compound 982]" target_or_system="c-Met (Homo sapiens, UniProt P08581)" endpoint_label=IC50 observed_value="1.03 to 6.2 µM"
compound="COc1ccc(Nc2ncnc(Nc3ccc(OC)c(OC)c3)n2)cc1OC [Compound 63]" target_or_system="c-Met (Homo sapiens, UniProt P08581)" endpoint_label=IC50 observed_value="> 11.7 µM"
compound="Cc1ccc2c(c1)CCCN2c1ncnc(Nc2ccc3ncsc3c2)n1 [Compound 773]" target_or_system="c-Met (Homo sapiens, UniProt P08581)" endpoint_label=IC50 observed_value="< 1.07 µM"

For the 2 compounds below, give their IC50 values.
1. Nc1ncnc(Nc2cc(Cl)ccc2O)n1 [Compound 1022]
2. COc1cc(Nc2ncnc(NC3CC3c3ccccc3)n2)cc(OC)c1OCCN1CCOCC1 (stereo not drawn) [Compound 563]

Reply text:
> 18.9 µM
4.87 to 7.11 µM

Give measured IC50 for every item shown.
1. COC(=O)Cc1cccc(Nc2ncnc(-n3c(NCc4ccccc4)nc4ccccc43)n2)c1 [Compound 545]
2. Cc1ccc(Nc2ncnc(N)n2)cc1 [Compound 1017]

Reply text:
["> 9.67 µM", "> 22.4 µM"]

###

Record form. Attribute: pIC50. Fill in for each entry.
Target: Zap-70 (Homo sapiens)
Construct: Kinases are expressed as either kinase domains or full length constructs; made in house
Sequence (P43403 1-619): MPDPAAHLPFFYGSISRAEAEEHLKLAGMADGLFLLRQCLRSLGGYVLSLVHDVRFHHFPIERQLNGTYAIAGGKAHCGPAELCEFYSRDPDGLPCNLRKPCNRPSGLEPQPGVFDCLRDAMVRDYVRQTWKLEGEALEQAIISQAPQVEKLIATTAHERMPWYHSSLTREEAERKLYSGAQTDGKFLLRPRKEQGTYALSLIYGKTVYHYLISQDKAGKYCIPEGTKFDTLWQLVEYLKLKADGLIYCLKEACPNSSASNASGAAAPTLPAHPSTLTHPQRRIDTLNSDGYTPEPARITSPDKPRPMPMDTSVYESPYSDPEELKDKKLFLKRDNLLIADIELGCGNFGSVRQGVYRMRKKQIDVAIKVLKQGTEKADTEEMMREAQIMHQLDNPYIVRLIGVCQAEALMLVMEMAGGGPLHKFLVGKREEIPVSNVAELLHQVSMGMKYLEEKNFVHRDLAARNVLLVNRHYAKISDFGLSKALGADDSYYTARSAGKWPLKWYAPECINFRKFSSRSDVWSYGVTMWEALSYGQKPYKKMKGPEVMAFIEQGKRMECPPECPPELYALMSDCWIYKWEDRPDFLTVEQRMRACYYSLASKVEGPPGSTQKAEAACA
Assay: Kinase inhibition assay (33P transfer), Zap-70
Assay type: biochemical
Settings: read-out: Zap-1
pIC50: −log10 of the molar value.

compound="CN(c1cccc(Cl)c1)c1ncnc(Nc2ccc(NC(=O)OC(C)(C)C)cc2)n1 [Compound 750]" observed_value="< 4.98"
compound="O=c1[nH]c2ccccc2n1-c1ncnc(Nc2ccccc2[N+](=O)[O-])n1 [Compound 493]" observed_value="< 4.89"
compound="COc1ccc(Nc2ncnc(NCCC#N)n2)cc1OC [Compound 787]" observed_value="< 4.82"
compound="COc1cc(Nc2ncnc(-c3cccnc3NCc3ccc(F)cc3)n2)cc(OC)c1OC [Compound 1088]" observed_value="< 5.01"

Turning now to a further compound:
Consider CN(c1cccc(Cl)c1)c1ncnc(Nc2ccc3cn[nH]c3c2)n1 [Compound 718] . Its measured pIC50 is 4.89 to 5.00

###

Target: Kdr (Homo sapiens, UniProt P35968)
Construct: Kinases are expressed as either kinase domains or full length constructs; made in house
Sequence (P35968 20-1356, species assumed): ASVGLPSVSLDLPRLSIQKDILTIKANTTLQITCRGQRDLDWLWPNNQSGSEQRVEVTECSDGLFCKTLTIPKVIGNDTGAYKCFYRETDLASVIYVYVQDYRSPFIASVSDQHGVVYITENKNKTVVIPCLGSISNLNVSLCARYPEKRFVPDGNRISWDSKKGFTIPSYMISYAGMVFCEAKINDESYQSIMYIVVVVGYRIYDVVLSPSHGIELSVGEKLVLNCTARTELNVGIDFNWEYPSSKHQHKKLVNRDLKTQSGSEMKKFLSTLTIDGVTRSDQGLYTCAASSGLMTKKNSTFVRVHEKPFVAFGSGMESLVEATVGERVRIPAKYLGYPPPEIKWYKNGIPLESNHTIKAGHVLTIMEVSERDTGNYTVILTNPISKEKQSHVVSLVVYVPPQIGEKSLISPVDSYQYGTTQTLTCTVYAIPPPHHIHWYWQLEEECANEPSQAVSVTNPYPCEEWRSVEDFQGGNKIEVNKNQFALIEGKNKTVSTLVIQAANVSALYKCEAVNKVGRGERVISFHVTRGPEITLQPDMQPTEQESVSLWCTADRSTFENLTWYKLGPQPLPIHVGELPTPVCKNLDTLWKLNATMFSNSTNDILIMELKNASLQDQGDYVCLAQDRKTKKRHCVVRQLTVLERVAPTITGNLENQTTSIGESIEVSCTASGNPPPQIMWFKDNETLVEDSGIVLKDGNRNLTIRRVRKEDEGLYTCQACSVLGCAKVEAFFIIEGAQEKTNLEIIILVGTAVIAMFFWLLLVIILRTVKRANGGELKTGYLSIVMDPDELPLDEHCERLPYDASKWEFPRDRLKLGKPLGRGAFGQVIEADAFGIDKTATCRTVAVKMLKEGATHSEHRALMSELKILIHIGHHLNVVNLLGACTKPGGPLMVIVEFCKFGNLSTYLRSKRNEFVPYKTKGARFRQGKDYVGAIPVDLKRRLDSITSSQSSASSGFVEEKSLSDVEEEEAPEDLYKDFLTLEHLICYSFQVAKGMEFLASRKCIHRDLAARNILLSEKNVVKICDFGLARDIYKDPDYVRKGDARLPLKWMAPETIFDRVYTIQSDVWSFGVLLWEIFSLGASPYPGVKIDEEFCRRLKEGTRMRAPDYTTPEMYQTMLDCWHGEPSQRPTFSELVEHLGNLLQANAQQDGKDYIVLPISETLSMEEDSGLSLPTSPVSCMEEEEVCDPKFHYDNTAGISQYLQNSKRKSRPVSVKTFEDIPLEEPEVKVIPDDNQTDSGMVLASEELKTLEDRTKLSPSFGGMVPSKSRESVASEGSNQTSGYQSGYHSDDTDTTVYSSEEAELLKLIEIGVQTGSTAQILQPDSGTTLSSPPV
Experiment: Kinase inhibition assay (33P transfer), Kdr
Assay type: biochemical
Conditions: Table 3; read-out: KDR-1
Source text: The inhibitor compounds described herein are screened in the following manner. […] Kinases are expressed as either kinase domains or full length constructs fused to glutathione S-transferase (GST) or polyHistidine tagged fusion proteins in either E. colior Baculovirus-High Five expression systems. […]
pIC50: −log10 of the molar value.
Consider the following molecules; for each one, report its pIC50.

Example entries begin here.
molecule=Oc1ccc(Nc2ncnc(Nc3ccc(OCc4ccccc4)cc3)n2)cc1 observed_value="5.21 to 5.98"
molecule=COc1cc(Nc2ncnc(N(c3ccccc3)c3nc4ccccc4[nH]3)n2)cc(OC)c1OC observed_value="> 6.07"
molecule=COc1cccc(NC(=O)Nc2ncnc(Nc3cc(OC)c(OC)c(OC)c3)n2)c1 observed_value="5.25 to 6.03"
molecule=COc1cc(Nc2ncnc(-n3c(NC(=O)c4ccccc4)nc4ccccc43)n2)cc(OC)c1OC observed_value="< 5.04"
molecule=NCc1ccc(Nc2ncnc(Nc3cc(-c4ccco4)n[nH]3)n2)cc1 observed_value="> 5.94"
molecule=COc1cc(Nc2ncnc(Nc3nnc(-c4ccccc4)[nH]3)n2)cc(OC)c1OC observed_value="5.24 to 6.02"
molecule=COc1cc(Nc2ncnc(N3CCCCC3)n2)cc(OC)c1OC observed_value="5.16 to 5.94"
molecule=COc1ccc(Nc2ncnc(Nc3ccc(Br)cc3F)n2)cc1OC observed_value="5.24 to 6.02"

Your task in this section: give pIC50 for each listed record.
1. Brc1ccc(Nc2ncnc(-n3cccc3)n2)cc1
2. COc1cc(Nc2ncnc(NC3CC3c3ccccc3)n2)cc(OC)c1OC (stereo not drawn)
3. COc1cc(Nc2ncnc(Nc3cc(-c4ccco4)n[nH]3)n2)cc(OC)c1
4. CC[C@H]1CN(c2ccc(-c3ncnc(Nc4cc(OC)c(OC)c(OC)c4)n3)cn2)CCN1
5. COc1cc(Nc2ncnc(Nc3ccc(C)c(O)c3)n2)cc(OC)c1OC

Reply text:
1: < 4.85; 2: 5.05 to 5.21; 3: > 5.98; 4: < 5.00; 5: > 5.98

Each molecule below has a recorded value; state its pIC50.
1. CC(=O)NCc1ccc(Nc2ncnc(Nc3cc(-c4ccco4)n[nH]3)n2)cc1
2. COc1cc(Nc2ncnc(-n3ccc4cc(F)ccc43)n2)cc(OC)c1OC
3. COc1ccc(Nc2ncnc(Nc3ccc(C)c(O)c3)n2)cc1OC
4. COc1cc(Nc2ncnc(-n3cc(C#N)c4ccccc43)n2)cc(OC)c1OC
5. COCCOc1cc(Nc2ncnc(Nc3ccc(C)c(O)c3)n2)ccc1OC

Reply text:
> 5.99
> 5.99
> 5.95
5.22 to 6.00
> 6.00
